Where do these numbers come from? They come from patent US11351178B2.

experiment: Stability in rat plasma; type: in vitro ADME; conditions: after 4 hours, 37° C.
assay.readout: residual percentage in rat plasma (%)

Reported residual percentage in rat plasma for Cn1c(Sc2c(F)cc(C(=O)NO)cc2F)nnc1-c1ccco1 [comp. 199] was 92

Reported residual percentage in rat plasma for Nn1c(Sc2ccc(C(=O)NO)cc2)nnc1-c1ccc(OC(F)F)cc1 [comp. 28] was 90

Reported residual percentage in rat plasma for O=C(NO)c1cc(F)c(Sc2nnc(-c3cccnc3)s2)c(F)c1 [comp. 191] was 92

Reported residual percentage in rat plasma for Cn1c(Sc2c(F)cc(C(=O)NO)cc2F)nnc1C(c1ccccc1)c1ccccc1 [comp. 98] was 89

Reported residual percentage in rat plasma for O=C(NO)c1ccc(Cn2nnc(-c3ccc(S(F)(F)(F)(F)F)cc3)n2)cc1 [comp. 110] was 92

Reported residual percentage in rat plasma for O=C(NO)c1cc(F)c(Sc2nnc(-c3cccnc3)n2Cc2ccco2)c(F)c1 [comp. 147] was 89

Reported residual percentage in rat plasma for Cn1c(Sc2c(F)cc(C(=O)NO)cc2F)nnc1-c1coc(CN2CCOCC2)c1 [comp. 203] was 94

Reported residual percentage in rat plasma for O=C(NO)c1ccc(Cn2nnnc2-c2ccc3ccccc3n2)cc1 [comp. 91] was 93

Reported residual percentage in rat plasma for CCN(CC)Cc1ccc(-c2nnc(Sc3c(F)cc(C(=O)NO)cc3F)n2C)o1 [comp. 211] was 86

Reported residual percentage in rat plasma for O=C(NO)c1cc(F)c(Cn2nnc(-c3ccc4ccccc4n3)n2)c(F)c1 [comp. 95] was 75

* * *

experiment: Stability to Phase I metabolism in rat S9 liver fraction; format: in vitro ADME; details: after 90 min, 37° C.
assay.readout: residual percentage in rat S9 fraction (%)

Reported residual percentage in rat S9 fraction for COc1ccc(C(=O)N[C@@H](Cc2cscn2)c2nc(Cc3ccc(C(=O)NO)cc3)no2)cc1OC was 70

Reported residual percentage in rat S9 fraction for O=C(NO)c1ccc(Cn2nnnc2-c2ccccc2)cc1 was 65

Reported residual percentage in rat S9 fraction for O=C(NO)c1cc(F)c(Cn2nnnc2-c2ncccn2)c(F)c1 was 90

Reported residual percentage in rat S9 fraction for O=C(NO)c1cc(F)c(Cn2nnnc2-c2ccc3ccccc3n2)c(F)c1 was 41

Reported residual percentage in rat S9 fraction for CCc1oc(-c2nnc(Sc3c(F)cc(C(=O)NO)cc3F)n2C)cc1CN1CCCC1 was 81

Reported residual percentage in rat S9 fraction for CCN(CC)S(=O)(=O)c1cccc(-c2nnc(Sc3ccc(C(=O)NO)cc3)n2N)c1 was 49

Reported residual percentage in rat S9 fraction for O=C(NO)c1ccc(Cc2noc(-c3ccnc(N4CCOCC4)c3)n2)cc1 was 63

A: CN(C)S(=O)(=O)c1cccc(-c2nnc(Cc3ccc(C(=O)NO)cc3)o2)c1
B: O=C(NO)c1ccc(Cn2nnc(-c3ccco3)n2)cc1
// query Between the entries labelled A and B , which has a larger residual percentage in rat S9 fraction value on record? I would appreciate it if you answered with the label of your choice.
// result A

* * *

assay: Stability to Phase I metabolism in rat S9 liver fraction; assay type: in vitro ADME; conditions: after 90 min, 37° C.
assay.readout: residual percentage in rat S9 fraction (%)

Field: example entries. Status: answers known.
Reported residual percentage in rat S9 fraction for CN1CCN(Cc2ccc(-c3nnc(Sc4c(F)cc(C(=O)NO)cc4F)n3C)o2)CC1 was 71

Reported residual percentage in rat S9 fraction for O=C(NO)c1cc(F)c(Cn2nnc(-c3ccco3)n2)c(F)c1 was 68

A: O=C(NO)c1ccc(Cn2nnnc2-c2ccccn2)cc1
B: O=C(NO)c1cc(F)c(Sc2nnc(-c3ccncc3)n2Cc2ccco2)c(F)c1
// query Hello, I am sorting some records. Could you say if A or B has the smaller residual percentage in rat S9 fraction value? I would appreciate it if you answered with the label of your choice.
// result B
(B: 59%, A: 88%)
